# Target desc: T1, CD3ε homodimer protein (human, UniProt P07766 23-126, limits assumed, sulfo-tag or biotin label in some ECL assays)
# T1 construct: also called human CD3ε homodimer protein; CD3 (CD3ε)
# T1 sequence (P07766 23-126 limits assumed): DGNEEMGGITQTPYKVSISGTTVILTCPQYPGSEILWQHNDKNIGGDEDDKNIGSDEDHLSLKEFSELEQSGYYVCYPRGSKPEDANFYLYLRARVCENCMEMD
# Test details: SPR, CD3ε homodimer on chip;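 note: biacore SPR with antibody variants flowed as analyte over amine-coupled CD3ε homodimer on a CM chip, bound amount of each single-residue H chain variant over that of parent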
Recorded metric: ratio of amounts bound vs CE115HA000
Could you respond with only the numeric value?

Ask: Given CE115HA000 D73G (antibody, name in Kabat numbering, V domains shown) VH: QVQLVESGGGVVQPGRSLRLSCAASGFTFSNAWMHWVRQAPGKGLEWVAQIKAKSNNYATYYAESVKGRFTISRDGSKNSLYLQMNSLKTEDTAVYYCRYVHYGAYYGVDAWGQGTTVTVSS VL: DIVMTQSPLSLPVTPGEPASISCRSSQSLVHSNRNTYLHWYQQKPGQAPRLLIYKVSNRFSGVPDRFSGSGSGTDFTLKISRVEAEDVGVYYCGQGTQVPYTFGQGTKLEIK , state its recorded ratio of amounts bound vs CE115HA000.
Result: 0.43

Recorded values, source patent US20220040297A1.
